Experiment: Plasma concentration in diabetic db/db mouse at 30 mg/kg administered at 4.5 and 0.5 hrs prior to oral glucose challenge measured 20 mins post second dose
Details: plasma
Outcome: class 1 for concentration at 20 min of at least 3000 ng/mL; class 0 for anything lower.

Example cases with answers are listed next.
item_smiles=N#Cc1ccc(-c2nc(NCCNc3ccc([N+](=O)[O-])cn3)ncc2-n2ccnc2)cc1 answer_label="class 1"
item_smiles=CN1CCN(c2cnc(NCCNc3ccc([N+](=O)[O-])c(N)n3)nc2-c2ccc(Cl)cc2Cl)C(=O)C1 answer_label="class 1"
item_smiles=Cc1c[nH]c(-c2cnc(NCCNc3ccc([N+](=O)[O-])cn3)nc2-c2ccc(Cl)cc2Cl)n1 answer_label="class 1"
item_smiles=N#Cc1ccc(-c2nc(NCCNc3ccc([N+](=O)[O-])cn3)ncc2-c2ncc[nH]2)cc1 answer_label="class 0"

From here, focus on the item given below.
Qu. Does `Cc1c[nH]c(-c2cnc(NCCNc3ccc([N+](=O)[O-])c(N)n3)nc2-c2ccc(Cl)cc2Cl)n1` have a reported concentration at 20 min of at least 3000 ng/mL?
Ans. class 1

---

Target: Protein kinase C zeta type (Homo sapiens, UniProt Q05513)
Sequence (Q05513 whole entry): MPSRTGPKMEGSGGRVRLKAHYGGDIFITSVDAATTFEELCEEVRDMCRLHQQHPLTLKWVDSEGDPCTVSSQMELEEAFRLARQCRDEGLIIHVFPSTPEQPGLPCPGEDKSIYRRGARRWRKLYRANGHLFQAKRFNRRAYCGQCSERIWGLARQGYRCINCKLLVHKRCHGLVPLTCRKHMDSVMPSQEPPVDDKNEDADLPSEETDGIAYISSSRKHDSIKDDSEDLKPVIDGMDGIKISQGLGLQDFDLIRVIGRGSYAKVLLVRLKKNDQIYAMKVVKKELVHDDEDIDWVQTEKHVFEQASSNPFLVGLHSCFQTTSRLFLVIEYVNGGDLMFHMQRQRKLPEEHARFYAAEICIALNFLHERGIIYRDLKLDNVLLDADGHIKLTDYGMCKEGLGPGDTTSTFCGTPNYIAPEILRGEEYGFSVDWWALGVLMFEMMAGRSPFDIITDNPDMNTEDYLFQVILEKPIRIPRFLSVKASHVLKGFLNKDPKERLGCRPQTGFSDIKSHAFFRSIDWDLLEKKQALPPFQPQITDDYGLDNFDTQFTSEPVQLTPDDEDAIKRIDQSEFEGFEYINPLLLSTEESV
Assay: Inhibition of human PKCzeta using biotin-PKC-86 peptide substrate after 30 mins in the presence of phosphatidylserine and diacylglycerol activators by scintillation counting
parameter measured: IC50

Qu. What does the record list as IC50 for `Nc1nc(NCCNc2ncc(-c3ncc[nH]3)c(-c3ccc(Cl)cc3Cl)n2)ccc1[N+](=O)[O-]` ?
Ans. > 10 µM

---

Assay: Oral bioavailability in diabetic ZDF fa/fa rat at 8 mg/kg administered 4.5 and 0.5 hrs prior to oral glucose challenge
Assay type: ADME, organism-based
Conditions: in vivo
parameter measured: bioavailability (%)
Numbers only, in %.

Some entries whose results are on file:
molecule=O=[N+]([O-])c1ccc(NCCNc2ncc(-c3ncc[nH]3)c(-c3ccc(Cl)cc3Cl)n2)nc1 parameter_measured=bioavailability experimental_result=33
molecule="Cc1c[nH]c(-c2cnc(NCCNc3ccc(C#N)cn3)nc2-c2ccc(Cl)cc2Cl)n1 [LADUVIGLUSIB]" parameter_measured=bioavailability experimental_result=36
molecule=N#Cc1ccc(NCCNc2ncc(-c3ncc[nH]3)c(-c3ccc(Cl)cc3Cl)n2)nc1 parameter_measured=bioavailability experimental_result=21

Give bioavailability for all molecules that follow.
1. Cc1c[nH]c(-c2cnc(NCCNc3ccc([N+](=O)[O-])c(N)n3)nc2-c2ccc(Cl)cc2Cl)n1
2. Nc1nc(NCCNc2ncc(-c3ncc[nH]3)c(-c3ccc(Cl)cc3Cl)n2)ccc1[N+](=O)[O-]

Ans.
1: 7; 2: 6

---

This document collects IC50 values reported for UniProt:Q02763.
Sequence (Q02763 whole entry): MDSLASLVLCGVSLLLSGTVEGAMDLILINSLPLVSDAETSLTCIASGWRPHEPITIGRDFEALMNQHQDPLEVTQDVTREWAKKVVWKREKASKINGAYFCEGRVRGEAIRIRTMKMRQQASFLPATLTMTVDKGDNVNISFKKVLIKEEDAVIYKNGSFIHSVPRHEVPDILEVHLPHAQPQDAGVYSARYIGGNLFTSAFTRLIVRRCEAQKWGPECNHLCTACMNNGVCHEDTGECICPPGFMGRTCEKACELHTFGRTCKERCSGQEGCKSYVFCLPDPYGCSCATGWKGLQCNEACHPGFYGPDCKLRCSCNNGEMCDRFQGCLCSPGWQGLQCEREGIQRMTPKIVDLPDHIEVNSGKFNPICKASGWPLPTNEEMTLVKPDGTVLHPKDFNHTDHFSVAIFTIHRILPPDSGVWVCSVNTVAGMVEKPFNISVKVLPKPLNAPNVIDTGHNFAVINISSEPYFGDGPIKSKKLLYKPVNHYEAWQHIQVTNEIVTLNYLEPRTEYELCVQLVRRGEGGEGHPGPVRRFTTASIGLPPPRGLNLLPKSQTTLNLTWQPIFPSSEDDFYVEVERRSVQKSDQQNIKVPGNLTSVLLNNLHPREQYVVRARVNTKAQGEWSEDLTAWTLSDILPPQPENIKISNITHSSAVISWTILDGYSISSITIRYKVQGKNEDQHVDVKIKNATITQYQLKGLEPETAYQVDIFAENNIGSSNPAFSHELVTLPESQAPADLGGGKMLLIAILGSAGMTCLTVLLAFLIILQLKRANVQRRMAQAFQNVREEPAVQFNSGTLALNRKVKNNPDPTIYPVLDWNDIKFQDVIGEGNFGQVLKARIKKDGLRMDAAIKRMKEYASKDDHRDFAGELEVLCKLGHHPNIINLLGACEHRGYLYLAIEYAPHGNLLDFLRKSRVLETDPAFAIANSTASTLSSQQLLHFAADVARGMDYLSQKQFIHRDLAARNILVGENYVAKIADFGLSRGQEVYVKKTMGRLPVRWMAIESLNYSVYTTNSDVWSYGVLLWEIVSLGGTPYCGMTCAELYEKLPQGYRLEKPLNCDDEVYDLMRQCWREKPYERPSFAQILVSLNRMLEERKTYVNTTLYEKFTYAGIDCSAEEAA

item_smiles=Nc1nc(NCCNc2ncc(-c3ncc[nH]3)c(-c3ccc(Cl)cc3Cl)n2)ccc1[N+](=O)[O-] target_entity=UniProt:Q02763 parameter_measured=IC50 experimental_result="> 25 µM"

// next item, IC50 requested
Qu. Query the reported IC50 for UniProt:Q02763; item: `Nc1nc(NCCNc2ncc(-n3ccnc3)c(-c3ccc(Cl)cc3Cl)n2)ccc1[N+](=O)[O-]`
Ans. > 5 µM

---

Target: Casein kinase I isoform epsilon (Homo sapiens)
Sequence (P49674 whole entry, canonical isoform): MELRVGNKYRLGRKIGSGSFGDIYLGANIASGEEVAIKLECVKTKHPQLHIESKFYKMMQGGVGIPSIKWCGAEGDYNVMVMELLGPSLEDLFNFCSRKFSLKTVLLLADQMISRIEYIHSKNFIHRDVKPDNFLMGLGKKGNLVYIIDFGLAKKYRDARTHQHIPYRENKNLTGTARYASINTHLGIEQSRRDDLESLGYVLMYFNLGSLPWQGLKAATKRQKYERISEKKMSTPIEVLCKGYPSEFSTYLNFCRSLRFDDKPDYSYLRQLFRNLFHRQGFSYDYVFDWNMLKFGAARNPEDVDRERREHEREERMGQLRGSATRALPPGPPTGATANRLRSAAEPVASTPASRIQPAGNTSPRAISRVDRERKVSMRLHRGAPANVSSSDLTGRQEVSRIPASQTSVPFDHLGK
Assay: Inhibition of human CK1epsilon using biotin peptide substrate after 1 hr by scintillation counting method
pIC50: −log10 of the molar value.
Would you mind telling me the reported pIC50 of each entry?

item_smiles=Nc1nc(NCCNc2ncc(-n3ccnc3)c(-c3ccc(Cl)cc3Cl)n2)ccc1[N+](=O)[O-] experimental_result="< 5.30"

Give pIC50 for all compounds that follow.
1. Cc1c[nH]c(-c2cnc(NCCNc3ccc(C#N)cn3)nc2-c2ccc(Cl)cc2Cl)n1
2. Nc1nc(NCCNc2ncc(-c3ncc[nH]3)c(-c3ccc(Cl)cc3Cl)n2)ccc1[N+](=O)[O-]

Ans.
1: < 5.30; 2: < 5.00

---

Target: Serine/threonine-protein kinase Chk1 (Homo sapiens, UniProt O14757)
Sequence (O14757 whole entry): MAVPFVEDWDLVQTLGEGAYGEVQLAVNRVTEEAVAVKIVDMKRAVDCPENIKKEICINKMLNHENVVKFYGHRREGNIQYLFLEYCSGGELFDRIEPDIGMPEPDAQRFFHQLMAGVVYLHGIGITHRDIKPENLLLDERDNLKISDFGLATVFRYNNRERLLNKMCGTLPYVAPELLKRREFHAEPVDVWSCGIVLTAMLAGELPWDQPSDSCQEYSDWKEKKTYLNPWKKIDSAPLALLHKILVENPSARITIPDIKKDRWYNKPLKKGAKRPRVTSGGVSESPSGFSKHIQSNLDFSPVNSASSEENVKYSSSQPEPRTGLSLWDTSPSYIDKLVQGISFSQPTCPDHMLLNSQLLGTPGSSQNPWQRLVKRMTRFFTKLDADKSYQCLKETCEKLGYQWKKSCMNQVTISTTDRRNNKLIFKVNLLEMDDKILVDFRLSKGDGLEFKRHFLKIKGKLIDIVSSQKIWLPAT
parameter measured: IC50

Qu. What does the record list as IC50 for `Nc1nc(NCCNc2ncc(-n3ccnc3)c(-c3ccc(Cl)cc3Cl)n2)ccc1[N+](=O)[O-]` ?
Ans. > 10 µM

---

Test: Plasma concentration in diabetic db/db mouse at 30 mg/kg administered at 4.5 and 0.5 hrs prior to oral glucose challenge measured 20 mins post second dose
Settings: plasma
parameter measured: concentration at 20 min (ng/mL)
One number for each entry, in ng/mL.

item_smiles=Nc1nc(NCCNc2ncc(-c3ncc[nH]3)c(-c3ccc(Cl)cc3Br)n2)ccc1[N+](=O)[O-] experimental_result=13000

Give concentration at 20 min for all compounds that follow.
1. Nc1nc(NCCNc2ncc(N3CCOCC3)c(-c3ccc(Cl)cc3Cl)n2)ccc1[N+](=O)[O-]
2. N#Cc1ccc(NCCNc2ncc(-c3ncc[nH]3)c(-c3ccc(Cl)cc3Cl)n2)nc1
3. Nc1nc(NCCNc2ncc(-c3ncc[nH]3)c(-c3ccc(Cl)cc3Cl)n2)ccc1[N+](=O)[O-]

Ans.
[1000, 29000, 19000]

---

This document collects IC50 values reported for Vascular endothelial growth factor receptor 2 (Homo sapiens, UniProt P35968).

item_smiles=Nc1nc(NCCNc2ncc(-c3ncc[nH]3)c(-c3ccc(Cl)cc3Cl)n2)ccc1[N+](=O)[O-] experimental_result="> 5 µM"

// next item, IC50 requested
Qu. What does the record list as IC50 for `Nc1nc(NCCNc2ncc(-n3ccnc3)c(-c3ccc(Cl)cc3Cl)n2)ccc1[N+](=O)[O-]` ?
Ans. > 2 µM

---

Target: UniProtKB P06493
Sequence (P06493 whole entry): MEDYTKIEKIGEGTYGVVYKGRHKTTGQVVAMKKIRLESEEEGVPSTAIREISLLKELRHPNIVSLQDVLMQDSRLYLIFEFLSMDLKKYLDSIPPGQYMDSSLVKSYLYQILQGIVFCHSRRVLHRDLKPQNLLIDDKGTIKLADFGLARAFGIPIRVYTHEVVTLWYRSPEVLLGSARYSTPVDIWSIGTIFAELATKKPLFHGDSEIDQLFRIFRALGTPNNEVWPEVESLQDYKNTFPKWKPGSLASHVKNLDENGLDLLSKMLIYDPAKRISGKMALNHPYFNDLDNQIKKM
parameter measured: IC50 (µM)
Give bare numbers, in µM.

Qu. What does the record list as IC50 for `Nc1nc(NCCNc2ncc(-n3ccnc3)c(-c3ccc(Cl)cc3Cl)n2)ccc1[N+](=O)[O-]` ?
Ans. 4

---

Assay: Clearance in iv dosed diabetic ZDF rat
Assay type: ADME, organism-based
Conditions: in vivo
parameter measured: clearance (mL/min/kg)
Numbers only, in mL/min/kg.

Qu. What does the record list as clearance for Cc1c[nH]c(-c2cnc(NCCNc3ccc(C#N)cn3)nc2-c2ccc(Cl)cc2Cl)n1 [LADUVIGLUSIB] ?
Ans. 43

---

Molecular target: 3-phosphoinositide-dependent protein kinase 1 (Homo sapiens, UniProt O15530)
Sequence (O15530 whole entry): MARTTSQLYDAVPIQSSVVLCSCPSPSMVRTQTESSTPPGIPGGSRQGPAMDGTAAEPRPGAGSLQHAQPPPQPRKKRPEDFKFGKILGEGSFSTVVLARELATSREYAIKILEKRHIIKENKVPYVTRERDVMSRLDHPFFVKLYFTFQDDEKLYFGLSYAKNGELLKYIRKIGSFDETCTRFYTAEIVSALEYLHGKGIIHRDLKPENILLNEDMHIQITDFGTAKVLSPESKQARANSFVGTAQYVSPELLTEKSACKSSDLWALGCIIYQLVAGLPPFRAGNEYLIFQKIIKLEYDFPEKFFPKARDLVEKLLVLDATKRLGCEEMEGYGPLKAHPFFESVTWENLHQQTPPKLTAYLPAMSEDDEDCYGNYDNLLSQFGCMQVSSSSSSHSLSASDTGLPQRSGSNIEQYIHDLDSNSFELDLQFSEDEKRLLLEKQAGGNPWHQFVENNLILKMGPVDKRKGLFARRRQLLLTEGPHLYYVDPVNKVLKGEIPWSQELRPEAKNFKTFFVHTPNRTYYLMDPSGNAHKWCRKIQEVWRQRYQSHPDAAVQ
Assay: Inhibition of human PDK1 using unactivated AKT substrate in presence of COPC, DOPS and PIP3 activators after 1 hr by scintillation counting method
parameter measured: IC50

Qu. What does the record list as IC50 for `Nc1nc(NCCNc2ncc(-c3ncc[nH]3)c(-c3ccc(Cl)cc3Cl)n2)ccc1[N+](=O)[O-]` ?
Ans. > 10 µM

---

Experiment: Half life in po dosed diabetic ZDF rat
Assay type: ADME, organism-based
Details: in vivo
parameter measured: half-life

Qu. What does the record list as half-life for Cc1c[nH]c(-c2cnc(NCCNc3ccc(C#N)cn3)nc2-c2ccc(Cl)cc2Cl)n1 [LADUVIGLUSIB] ?
Ans. 1.53 to 1.63 h

---

Test: Plasma concentration in diabetic db/db mouse at 30 mg/kg administered at 4.5 and 0.5 hrs prior to oral glucose challenge measured 20 mins post second dose
Settings: plasma
parameter measured: concentration at 20 min (ng/mL)
Give bare numbers, in ng/mL.

Some entries whose results are on file:
item_smiles=Nc1cnc(NCCNc2ccc([N+](=O)[O-])c(N)n2)nc1-c1ccc(Cl)cc1Cl experimental_result=1000
item_smiles=O=[N+]([O-])c1ccc(NCCNc2ncc(-c3ncc[nH]3)c(-c3ccc(Cl)cc3Cl)n2)nc1 experimental_result=97000
item_smiles=Nc1nc(NCCNc2ncc(CO)c(-c3ccc(Cl)cc3Cl)n2)ccc1[N+](=O)[O-] experimental_result=12000
item_smiles=N#Cc1ccc(NCCNc2ncc(-n3ccnc3)c(-c3ccc(Cl)cc3Cl)n2)nc1 experimental_result=13000

Qu. What does the record list as concentration at 20 min for `Cc1c[nH]c(-c2cnc(NCCNc3ccc(C#N)cn3)nc2-c2ccc(Cl)cc2Cl)n1` ?
Ans. 15000
